targetDesc: rabbit skeletal muscle α-actin (rabbit, UniProt P68135 1-377)
procedureSummary: SPR; BIACORE 3000; actin (10 µg/ml) amine-coupled to a CM5 chip, 1500-1800 RU; running buffer 10 mM HEPES pH 7.4, 150 mM NaCl, 0.005% tween 20; 25°C, 40 µl/min; LL-37 0-500 nM, 1:1 Langmuir model; sLL-37 0-2500 nM, steady state affinity model
statedConditions: both partners purified

| binder | Kd / µM |
| --- | --- |
| GLKLRFEFSKIKGEFLKTPEVRFRDIKLKDNRISVQR (scrambled order of the residues of LL-37; same net number of positive charges; also called sLL-37; source: bought: Genemed Synthesis Inc; purified by HPLC, purity greater than 90%) [scrambled LL-37] | 138 |
